test: reversal of MRP1-mediated doxorubicin resistance, pilot screen, H69AR cells, doxorubicin co-treatment (AID 601); settings: H69AR cells, CellTiter-Glo, 72 h; compound alone cytotoxicity; at 10 µM
In this section we review reported viability values for a set of compounds.

>  <compound>
COc1cc(=O)[nH]c(SCc2c(F)c(F)c(F)c(F)c2F)n1

>  <viability (%)>
91.5

$$$$
>  <compound>
O=C(NC1CCCC1)c1ccc2nc[nH]c2c1

>  <viability (%)>
91.2

$$$$
>  <compound>
CC(C)(C)OC(=O)N1CCC(C(=O)N2CCCCCC2)CC1

>  <viability (%)>
107

$$$$
>  <compound>
S=C(N=Nc1ccccc1)NNc1ccccc1

>  <viability (%)>
81.4

$$$$
>  <compound>
O=C1CSC(c2cn(-c3ccccc3)nc2-c2ccccc2)N1Cc1ccco1 (stereo not given)

>  <viability (%)>
88.3

$$$$
>  <compound>
c1cncc(-c2nnc(SCCSc3nnc(-c4cccnc4)o3)o2)c1

>  <viability (%)>
91.9

$$$$
>  <compound>
O=C(CCN1CCc2ccccc2C1)Nc1ccc2c(c1)OCO2

>  <viability (%)>
87.1

$$$$
>  <compound>
c1ccc(SCc2nc3ccccc3[nH]2)nc1

>  <viability (%)>
90.6

$$$$
>  <compound>
CCOC(=O)C(C)Sc1nc2c(cnn2-c2ccc(C)cc2)c(=O)[nH]1 (stereo not given)

>  <viability (%)>
14.4

$$$$
>  <compound>
CCC1(C)Cc2c(C#N)c(N)n(-c3ccccc3)c(=O)c2CO1 (stereo not given)

>  <viability (%)>
109

$$$$
>  <compound>
COC(=O)CC1SCCNC1=O (stereo not given)

>  <viability (%)>
95.6

$$$$
>  <compound>
O=C(O)CCC(=O)Nc1ccc(S(=O)(=O)Nc2nccs2)cc1

>  <viability (%)>
94.4

$$$$
>  <compound>
Cc1ccc(C(=O)OCC(=O)c2ccc(Cl)s2)s1

>  <viability (%)>
97.4

$$$$
>  <compound>
COc1ccc(NC(=O)C(C)NS(=O)(=O)c2ccccc2)cc1Cl (stereo not given)

>  <viability (%)>
97.7

$$$$
>  <compound>
Cc1ccccc1-c1nc(CN2CCC(C(=O)NCCCN3CCCC3)CC2)c(C)o1

>  <viability (%)>
98.2

$$$$
